# Protocol: Plasma pharmacokinetics and brain uptake of antrafenine in mice (LC-MS)
# Type: in vivo, male C57BL/6 mice
# Condition Label: male, C57BL/6, mouse, plasma, iv, 3 mg/kg, IV 3 mg/kg, 4 h, n = 3; read-out: Plasma Concentration Mean ± SD
Experimental Readout: concentration at 4 h (nM)
Kindly provide the numeric value in nM only, without the unit symbol.

(Q) Form field: reported concentration at 4 h of O=C(OCCN1CCN(c2cccc(C(F)(F)F)c2)CC1)c1ccccc1Nc1ccnc2cc(C(F)(F)F)ccc12 [antrafenine]
(A) 47.5

###

# Protocol: Plasma pharmacokinetics and brain uptake of antrafenine in mice (LC-MS)
# Format: in vivo, male C57BL/6 mice
# Condition Label: male, C57BL/6, mouse, brain, iv, 3 mg/kg, IV 3 mg/kg, 1 h, n = 3; read-out: B:P ratio Mean ± SD
Experimental Readout: Kp at 1 h
Reply with just the number.

(Q) Form field: reported Kp at 1 h of O=C(OCCN1CCN(c2cccc(C(F)(F)F)c2)CC1)c1ccccc1Nc1ccnc2cc(C(F)(F)F)ccc12
(A) 0.11

###

# Protocol: Plasma pharmacokinetics and brain uptake of antrafenine in mice (LC-MS)
# Type: in vivo, male C57BL/6 mice
# Condition Label: male, C57BL/6, mouse, plasma; IV administration at 3mg/kg; read-out: Plasma AUC0-inf
Experimental Readout: AUC(0-inf)
State the value, then name its unit.

(Q) Form field: reported AUC(0-inf) of O=C(OCCN1CCN(c2cccc(C(F)(F)F)c2)CC1)c1ccccc1Nc1ccnc2cc(C(F)(F)F)ccc12
(A) 3.14 µM·h

###

# Protocol: Plasma pharmacokinetics and brain uptake of antrafenine in mice (LC-MS)
# Type: in vivo, male C57BL/6 mice
# Condition Label: male, C57BL/6, mouse, plasma, iv, 1 mg/kg, IV 1 mg/kg, 4 h, n = 3; read-out: Plasma Concentration Mean ± SD
Experimental Readout: concentration at 4 h (nM)
Kindly provide the numeric value in nM only, without the unit symbol.

(Q) Form field: reported concentration at 4 h of O=C(OCCN1CCN(c2cccc(C(F)(F)F)c2)CC1)c1ccccc1Nc1ccnc2cc(C(F)(F)F)ccc12 [antrafenine]
(A) 13.1

###

# Protocol: Plasma pharmacokinetics and brain uptake of antrafenine in mice (LC-MS)
# Format: in vivo, male C57BL/6 mice
# Condition Label: male, C57BL/6, mouse, plasma, iv, 1 mg/kg, IV 1 mg/kg, 24 h, n = 3; read-out: Plasma Concentration Mean ± SD
Experimental Readout: concentration at 24 h (nM)
Kindly provide the numeric value in nM only, without the unit symbol.

(Q) Form field: reported concentration at 24 h of O=C(OCCN1CCN(c2cccc(C(F)(F)F)c2)CC1)c1ccccc1Nc1ccnc2cc(C(F)(F)F)ccc12
(A) 1.8

###

# Protocol: Plasma pharmacokinetics and brain uptake of antrafenine in mice (LC-MS)
# Format: in vivo, male C57BL/6 mice
# Condition Label: male, C57BL/6, mouse, plasma, iv, 1 mg/kg, IV 1 mg/kg, 0.25 h, individual mice; read-out: Plasma Concentration Individual
Experimental Readout: concentration at 0.25 h (nM)
Kindly provide the numeric value in nM only, without the unit symbol.

(Q) Form field: reported concentration at 0.25 h of O=C(OCCN1CCN(c2cccc(C(F)(F)F)c2)CC1)c1ccccc1Nc1ccnc2cc(C(F)(F)F)ccc12
(A) 313
